# reported apparent KD of MS2 coat protein; entries follow
System: MS2 coat protein
MEASUREMENT_NOTES: apparent KD of MS2 coat protein; higher = weaker reporter binding
TEST_CONDITIONS: Eterna round: R107; input ligand: theophylline 20 uM
The reply should be a number in nM, with the unit left off.

Solved entries (count: 2):
ACAUGAGGAUCACCCAUGUGGCGUCUUGAUACCAGACCCGAAGUAGUCCCUUGGCAGCAACUACGUGAGGGUCGCCCAUGUGUAG [k'kmullin]; 40.8
AAAUAAAUACAUGAGGAUCACCCAUGUGAAGGAGCGCCCGUUAGGGCAGGUAGGUCGCACAUGAAUAACUCCGCGCGAAAGCGCA [MAT - Exclusion Arginine A - Mod of Eli - D10]; 37.1

// AAUUUCGUAGGUAAAAGUUUAGAAACUGAAGGAGCGUGGUAUUACACAGGUAGGUCGCAGAUUUUACAUGAGGAUCACCCAUGUU [JR_SSArginiA_Sub008] : apparent KD of MS2 coat protein value = 22

// CCUAUCCAGUCGGCCGCCACUGACCAUUUGGAACAGUGGGUGAAAACAUGAGGAUCACCCAUGUACAGGACCGGGACUGUAUAGG [Ex Tryptophan B 20] : apparent KD of MS2 coat protein value = 15.7
